What Teratogenicity Potential (μM) O/C Ratio was measured for each of the following?
test system: WA09 hES cells; test: Phase 2 targeted biomarker assay, ornithine/cystine ratio, 9-point dose response; conditions: human, 72 h
Please give a number only; it is taken to be in µM.

In: Send back WA09 hES cells Teratogenicity Potential (μM) O/C Ratio of O=c1[nH]cc(F)c(=O)[nH]1 only.
Out: 3

In: Send back WA09 hES cells Teratogenicity Potential (μM) O/C Ratio of CCCC(CCC)C(=O)O only.
Out: 90.8

In: Send back WA09 hES cells Teratogenicity Potential (μM) O/C Ratio of NC(=O)N1c2ccccc2C=Cc2ccccc21 [Carbamazepine] only.
Out: 0.9

In: Send back WA09 hES cells Teratogenicity Potential (μM) O/C Ratio of CN(CCOc1ccc(CC2SC(=O)NC2=O)cc1)c1ccccn1 (centres unmarked) only.
Out: 18.9

In: Send back WA09 hES cells Teratogenicity Potential (μM) O/C Ratio of Nc1ccn(C[C@@H](CO)OCP(=O)(O)O)c(=O)n1 only.
Out: 0.3

In: Send back WA09 hES cells Teratogenicity Potential (μM) O/C Ratio of S=P(N1CC1)(N1CC1)N1CC1 only.
Out: 0.04

In: Send back WA09 hES cells Teratogenicity Potential (μM) O/C Ratio of CC1=C(/C=C/C(C)=C/C=C/C(C)=C/CO)C(C)(C)CCC1 only.
Out: 42.2

In: Send back WA09 hES cells Teratogenicity Potential (μM) O/C Ratio of O=C1CCC(N2C(=O)c3ccccc3C2=O)C(=O)N1 (centres unmarked) [Thalidomide] only.
Out: 0.2

In: Send back WA09 hES cells Teratogenicity Potential (μM) O/C Ratio of CCN(CC)CCNC(=O)c1cc(Cl)c(N)cc1OC [Metoclopramide] only.
Out: 190.8

In: Send back WA09 hES cells Teratogenicity Potential (μM) O/C Ratio of CN(Cc1cnc2nc(N)nc(N)c2n1)c1ccc(C(=O)N[C@@H](CCC(=O)O)C(=O)O)cc1 [Methotrexate] only.
Out: 0.05

In: Send back WA09 hES cells Teratogenicity Potential (μM) O/C Ratio of CC(C)CN(C[C@@H](O)[C@H](Cc1ccccc1)NC(=O)O[C@H]1CCOC1)S(=O)(=O)c1ccc(N)cc1 only.
Out: 236.9

In: Send back WA09 hES cells Teratogenicity Potential (μM) O/C Ratio of CS(=O)(=O)OCCCCOS(C)(=O)=O only.
Out: 0.6

In: Send back WA09 hES cells Teratogenicity Potential (μM) O/C Ratio of N[C@@H](Cc1cc(I)c(Oc2cc(I)c(O)c(I)c2)c(I)c1)C(=O)O only.
Out: 43.5

In: Send back WA09 hES cells Teratogenicity Potential (μM) O/C Ratio of COc1ccccc1Oc1c(NS(=O)(=O)c2ccc(C(C)(C)C)cc2)nc(-c2ncccn2)nc1OCCO only.
Out: 44.9

In: Send back WA09 hES cells Teratogenicity Potential (μM) O/C Ratio of CS(=O)(=O)CCNCc1ccc(-c2ccc3ncnc(Nc4ccc(OCc5cccc(F)c5)c(Cl)c4)c3c2)o1 only.
Out: 29

From: patent US10209240B2
